Each recorded value in this set is attributed to PubChem BioAssay AID1159580.

- experiment-description: chemical genetic growth profiling, strain panel (AID 1159580);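 further: tested at 20 µM; growth read once vehicle control cultures reached saturation at 30 °C; 1 = growth at the plate median or of vehicle wells; lower values mean less growth of the strain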
- measurement-conditions: S. cerevisiae deletion strains, growth OD, locus YER015W, strain faa2, hits give low values
Among all 5,500 compounds or so, about 2,000 (36%) were called active. Roughly 18% stayed inconclusive and do not appear here. Some of the results follow.
experimental-readout: normalized growth
Answers are plain numbers.

molecule: O=c1oc2ccccc2c(O)c1Cc1c(O)c2ccccc2oc1=O
experimental-readout: normalized growth
endpoint-result: 1.01
--
molecule: O=C1CCc2cc(OCCCCc3nnnn3C3CCCCC3)ccc2N1
experimental-readout: normalized growth
endpoint-result: 0.997
--
molecule: COc1ccc(-c2coc3cc(OC(C)=O)cc(OC(C)=O)c3c2=O)cc1
experimental-readout: normalized growth
endpoint-result: 0.951
--
molecule: NS(=O)(=O)c1cc2c(cc1C(F)(F)F)NCNS2(=O)=O
experimental-readout: normalized growth
endpoint-result: 0.97
--
molecule: CC(=O)O[C@H]1C[C@@]2(C)[C@H](c3ccoc3)OC(=O)[C@H]3O[C@]32[C@@]2(C)C1[C@]1(C)C(C[C@H]2OC(C)=O)C(C)(C)[C@H](OC(C)=O)C[C@@H]1OC(C)=O (some centres undefined)
experimental-readout: normalized growth
endpoint-result: 0.997
--
molecule: Nc1ccc(C(=O)Oc2ccccc2)c(O)c1
experimental-readout: normalized growth
endpoint-result: 0.944
--
molecule: CCCCC1C(=O)N(c2ccccc2)N(c2ccccc2)C1=O
experimental-readout: normalized growth
endpoint-result: 0.998
--
molecule: COc1c(O)cc2c(-c3ccccc3)cc(=O)oc2c1OC
experimental-readout: normalized growth
endpoint-result: 0.997

Quick one: give me normalized growth for each item below, same order please.
1. C=C1C(N)CC2CC1C2(C)C (centres undefined)
2. O=C(O)c1cc(=O)c2ccccc2o1
3. O=C(O)/C=C(\CC(=O)O)C(=O)O
4. C=CCCCCCCCCCCCC(O)CC(O)CO (centres undefined)
5. Cn1nnnc1SCC1=C(C(=O)O)N2C(=O)C(NC(=O)C(O)c3ccccc3)C2SC1 (centres undefined)

Reply |
0.99
0.99
0.998
0.99
0.99

Provide reported normalized growth for each item, in the same order as listed.
1. CCn1cc(C(=O)O)c(=O)c2cc(F)c(N3CCNCC3)cc21
2. CC1=CCc2c(cc3oc(C)cc(=O)c3c2O)OC1
3. CCN(CC)CCNc1ccc(CO)c2sc3ccccc3c(=O)c12
4. CC[C@]12C=CCN3CC[C@@]4(c5ccc(OC)cc5N(C)C4[C@@](O)(C(=O)OC)[C@@H]1OC(C)=O)[C@@H]32 (some centres undefined)

Reply |
0.987
0.975
1
1.01

For each of the items listed, what is its normalized growth?
1. C=C1C2CC[C@@]3(C)[C@H](c4ccoc4)OC(=O)C[C@]13O[C@H]1CC(=O)C(C)(C)[C@H](C(O)C(=O)OC)[C@@]21C (some centres undefined)
2. COc1cc([C@@H]2c3cc4c(cc3[C@H](OC(C)=O)[C@H]3COC(=O)[C@H]23)OCO4)cc(OC)c1OC

Reply |
1
1.02

For every item below, please supply its normalized growth.
1. CCOC(=O)C1C(C=C(C)C)C1(C)C (centres undefined)
2. ClC(Cl)=C(c1ccc(Cl)cc1)c1ccc(Cl)cc1
3. CC(C)(Oc1ccc(Cl)cc1)C(=O)O

Reply |
1: 1; 2: 0.983; 3: 1.01

Would you mind giving normalized growth for every molecule in the list below?
1. Cc1cc2cc3c(C)cc(=O)oc3c(C)c2o1
2. COc1ccc(-c2cc(=O)c3ccccc3o2)cc1OC

Reply |
0.981
0.932

###

Can you tell me normalized growth for the items I'm about to list?
- experiment-description: chemical genetic growth profiling, strain panel (AID 1159580);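 further: tested at 20 µM; growth read once vehicle control cultures reached saturation at 30 °C; 1 = growth at the plate median or of vehicle wells; lower values mean less growth of the strain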
- measurement-conditions: S. cerevisiae deletion strains, growth OD, locus YDL040C, strain nat1, hits give low values
Among all 5,500 compounds or so, about 2,000 (36%) were called active. Roughly 18% stayed inconclusive and do not appear here. The list shows a part of the results.
Give bare numbers.

Example results:
compound: CN(C)CCC=C1c2ccccc2CCc2ccccc21
endpoint-result: 0.989
--
compound: C=C1C2CC[C@@]3(C)[C@H](c4ccoc4)OC(=O)C[C@]13O[C@H]1CC(=O)C(C)(C)[C@H](C(O)C(=O)OC)[C@@]21C (some centres undefined)
endpoint-result: 0.998
--
compound: COc1cc([C@@H]2c3cc4c(cc3[C@H](OC(C)=O)[C@H]3COC(=O)[C@H]23)OCO4)cc(OC)c1OC
endpoint-result: 0.996
--
compound: CC1=C2C(=CO[C@H](C)[C@H]2C)C(=O)C(C(=O)O)=C1O
endpoint-result: 0.98

Give one value of normalized growth per listed compound.
1. CCCCCCc1ccc(O)cc1O
2. COC(=O)C1=C(C)NC(C)=C(C(=O)OCCN(C)Cc2ccccc2)C1c1cccc([N+](=O)[O-])c1 (centres undefined)
3. COc1cccc(-c2cc(=O)c3ccc(OC)cc3o2)c1
4. COc1ccc2cc3[n+](cc2c1OC)CCc1cc2c(cc1-3)OCO2
5. CC1(C)O[C@@H]2CC3C4C[C@H](F)C5=CC(=O)C=C[C@]5(C)[C@@]4(F)[C@@H](O)C[C@]3(C)[C@]2(C(=O)CO)O1 (some centres undefined)

Reply |
0.973
0.973
0.948
0.986
1.01

###

- experiment-description: chemical genetic growth profiling, strain panel (AID 1159580);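 further: tested at 20 µM; growth read once vehicle control cultures reached saturation at 30 °C; 1 = growth at the plate median or of vehicle wells; lower values mean less growth of the strain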
- measurement-conditions: S. cerevisiae deletion strains, growth OD, locus YLR268W, strain sec22
Among all 5,500 compounds or so, about 2,000 (36%) were called active. Not shown: some 18% with an inconclusive outcome. No stated cut-off is given here; in the data, active means normalized growth mostly below about 0.91 (no sharp cut-off); inconclusive means no clear call, values can overlap the other calls; inactive means mostly above about 0.92. Some of the results follow.
Give your call using only these classes: TRUE for active, FALSE for inactive

molecule: NS(=O)(=O)c1cc2c(cc1C(F)(F)F)NCNS2(=O)=O
label-class: FALSE

Ask | What classification did COc1cc2cc[n+]3cc4c(OC)c(OC)ccc4cc3c2cc1OC end up with in this test?
Reply | FALSE

Ask | Hi, sorry to bother you, what did the test record for Cc1cc(=O)c2c(o1)-c1c(cc(O)c(O)c1C(=O)O)OC2 ?
Reply | FALSE

Ask | Write down the call the test reported for this molecule. Item: CC(=O)Nc1cccc(O)c1
Reply | FALSE

Ask | Please state the recorded outcome for this molecule: CN1CCN2c3ccccc3Cc3ccccc3C2C1 (stereo not drawn)
Reply | FALSE

Ask | Please share the test call associated with CC1(C)O[C@@H]2CC3C4CCC5=CC(=O)C=C[C@]5(C)[C@@]4(F)[C@@H](O)C[C@]3(C)[C@]2(C(=O)CO)O1 (stereo partly drawn) .
Reply | FALSE

###

Please respond with reported normalized growth for every item in the list.
- experiment-description: chemical genetic growth profiling, strain panel (AID 1159580);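 further: tested at 20 µM; growth read once vehicle control cultures reached saturation at 30 °C; 1 = growth at the plate median or of vehicle wells; lower values mean less growth of the strain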
- measurement-conditions: S. cerevisiae deletion strains, growth OD, locus YOR061W, strain CKA2, hits give low values
Hit rate of the full screen: of about 5,500 compounds, about 2,000 (36%) were called active. Inconclusive results (about 18%) are left out. Some of the results follow.

Worked examples, 3 molecules total:
molecule: C=CCCCCCCCCCCCC(O)CC(O)CO (stereo not drawn) (tested in a mixture with another compound)
normalized growth: 0.0632 (active)

molecule: CC(=O)Nc1cccc(O)c1
normalized growth: 1 (inactive)

molecule: O=C(O)/C=C(\CC(=O)O)C(=O)O
normalized growth: 0.988 (inactive)

Report normalized growth for each item below.
1. CC(=O)O[C@@H]1CC2C(C)(C)C(=O)CC[C@]2(C)C2CC[C@@]3(C)[C@H](c4ccoc4)OC(=O)C4OC43[C@@]21C (stereo partly drawn)
2. O=C1Nc2ccccc2/C1=N/N=C\c1cc(Br)cc(Br)c1O
3. CCn1cc(C(=O)O)c(=O)c2cc(F)c(N3CCNCC3)cc21
4. CC(=O)OC1CC2C(C)(C)CCCC2(C)C2CCC3(C)C(c4ccoc4)OC(=O)C4OC43C12C (stereo not drawn)
5. NC(=O)CC[C@@H](N)C(=O)O
6. CC(=O)O[C@@H]1CC2C(C)(C)CCC(=O)[C@]2(C)C2CC[C@@]3(C)[C@H](c4ccoc4)OC(=O)C4OC43[C@@]21C (stereo partly drawn)
7. COc1cc(NC(=S)Nc2ccccc2OC(F)(F)F)cc(C(F)(F)F)c1
8. Cc1cc(=O)c2c(o1)-c1c(cc(O)c(O)c1C(=O)O)OC2

Reply |
["0.985 (inactive)", "0.105 (active)", "1 (inactive)", "1.01 (inactive)", "1.02 (inactive)", "0.998 (inactive)", "0.962 (inactive)", "1.01 (inactive)"]

Lab note: each molecule below needs its normalized growth filled in.
1. Cc1cc(=O)c2c(O)c3c(cc2o1)OC(C)(C)CC3
2. Nc1ccc(C(=O)Oc2ccccc2)c(O)c1
3. N#Cc1c(Br)cnn1Cc1cc(C(F)(F)F)cc(C(F)(F)F)c1
4. CC1=CCc2c(cc3oc(C)cc(=O)c3c2O)OC1

Reply |
1 (inactive)
0.928 (inactive)
0.867 (inactive)
0.972 (inactive)

Please state normalized growth for every molecule in the list that follows.
1. NCCc1ccc(O)c(O)c1
2. C=CCc1ccccc1OCC(O)CNC(C)C (stereo not drawn)
3. CC(=O)O[C@H]1C[C@@H](O)C(C)(C)C2C[C@@H](OC(C)=O)[C@]3(C)C(CC[C@@]4(C)[C@H](c5ccoc5)OC(=O)C5OC543)[C@]21C (stereo partly drawn)

Reply |
["0.993 (inactive)", "1.01 (inactive)", "0.966 (inactive)"]
